Data credit: ChEMBL document CHEMBL4049435

test.method.notes: Volume of distribution at steady state in Han-Wistar rat at 1 mg/kg, iv by LC-MS/MS analysis
Type: ADME, organism-based
condition.notes: in vivo, read-out: Vdss
Classes based on Vd: label 0 (below 0.3 L/kg), label 1 (0.3 L/kg to below 0.4 L/kg), label 2 (0.4 L/kg or more)

O=C(O)CCn1c(=O)oc2cc(Cl)c(Cl)cc21 | label 0
C[C@@H](Oc1cc2onc(CCC(=O)O)c2cc1Cl)c1ccc(Cl)cn1 | label 0
Cc1ccc([C@@H](C)Oc2cc3onc(CCC(=O)O)c3cc2Cl)nn1 | label 2
Cc1ccc([C@@H](C)Oc2cc3onc(CCC(=O)O)c3cc2Cl)nc1 | label 1
C[C@@H](Oc1cc2onc(CCC(=O)O)c2cc1Cl)c1ccccn1 [GSK-065] | label 2

Please report the category associated with `O=C(O)CCn1c(=O)oc2cc(OCC3CC3)c(Cl)cc21` , nothing else. label 0

Exercise: read the entry `C[C@@H](Oc1cc2oc(=O)n(CCC(=O)O)c2cc1Cl)c1ccccn1` and state which class it falls under. label 2
